These data points were gathered from the supplement of paper PMC11451515.

System: P12-Ichikawa
procedure_text: cell viability relative to DMSO control; higher = less cytotoxic
details: RPMI 5 mM glucose + 10% dialyzed FBS; 48 h; 0.00702 µM
assay_metric: cell viability (%)
API: value field is a number in %; no unit string.

Req: What measured cell viability goes with NC(=O)NO ?
Resp: 87.7

Req: Please answer likewise for C[S+](=O)([O-])c1ccc(Oc2cc(F)cc(C#N)c2)c2c1[C@H](O)C(F)(F)C2
Resp: 108

Req: Also need C[C@H]1O[C@H](C[C@H](O)[C@@H]1O)O[C@H]2[C@@H](O)C[C@@H](O[C@@H]2C)O[C@H]3[C@@H](O)C[C@@H](O[C@@H]3C)O[C@H]4CC[C@@]5(C)[C@H](CC[C@@H]6[C@@H]5C[C@@H](O)[C@]7(C)[C@H](CC[C@]67O)C/8=C/C(=O)OC8)C4 , thanks.
Resp: 117

Req: What do we get for Cc1cccc(/C=N/Nc2cc(N3CCOCC3)nc(OCCc3ccccn3)n2)c1 ?
Resp: 88.5

Req: Next record, please: Nc1nc(Cl)nc2c1ncn2[C@@H]1O[C@H](CO)[C@@H](O)[C@@H]1F
Resp: 24.4

Req: What about CC/1=C(\O)C(=O)\C=C2/C1=C/C=C3\[C@@]2(C)CC[C@@]4(C)[C@@H]5C[C@@](C)(CC[C@]5(C)CC[C@]34C)C(O)=O ?
Resp: 98.8

Req: And what about the compound CC(O)C1C2C(C)\C(=C(/N2C1=O)C(O)=O)SC3CNC(C3)C(=O)N(C)C (configuration not stated) ?
Resp: 85.8

###

Tested on: SEM cells
procedure_text: cell viability relative to DMSO control; higher = less cytotoxic
details: HPLM + 10% dialyzed FBS; 48 h; 0.00702 µM
assay_metric: cell viability
Kindly format the answer as number then unit.

Req: // query cell viability value for entry CO/N=C(\C(=O)N[C@@H]1C(=O)N2C(C(=O)OCOC(=O)C(C)(C)C)=C(/C=C\c3scnc3C)CS[C@H]12)c1csc(N)n1
Resp: 86.9%

Req: What about Cc1nc(Nc2n[nH]c3c2CN(C(=O)N[C@H](CN(C)C)c2ccccc2)C3(C)C)c2sccc2n1 ?
Resp: 51.6%

Req: Record: Cc1c(C)c2c(c(C)c1O)CCC(C)(COc1ccc(CC3SC(=O)NC3=O)cc1)O2 (configuration not stated)
Resp: 127%

Req: Then what about the compound NC(=O)Nc1cc(-c2cccc(F)c2)sc1C(=O)N[C@H]1CCCNC1 ?
Resp: 66.4%

Req: Similarly, C[C@H]1O[C@H](C[C@H](O)[C@@H]1O)O[C@H]2[C@@H](O)C[C@@H](O[C@@H]2C)O[C@H]3[C@@H](O)C[C@@H](O[C@@H]3C)O[C@H]4CC[C@@]5(C)[C@H](CC[C@@H]6[C@@H]5C[C@@H](O)[C@]7(C)[C@H](CC[C@]67O)C/8=C/C(=O)OC8)C4 ?
Resp: 122%

Req: Could you do the same for COc1cc(C)c(Sc2cnc(NC(=O)c3ccc(CNC(C)C(C)C)cc3)s2)cc1C(=O)N1CCN(C(C)=O)CC1 (configuration not stated) , please?
Resp: 124%

Req: Try this compound too: C1CCN2C[C@H]3C[C@H](\C=C/4CCCN[C@@H]34)[C@H]2C1
Resp: 105%
